molecular target: Interleukin-1 receptor-associated kinase 4 (Homo sapiens); details: at 0.1 µM;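 further: reported figure is the mean inhibition of IRAK4 activity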

structure	inhibition [%]
COc1cc(Nc2ncc3c(C)nc(-c4cccc(C(F)(F)F)c4)n3n2)cc(OC)c1OC	-2.83
CCc1nccc2c1nc(-c1nonc1N)n2CC	2.27
COc1cccc(-n2cnc3c(N/N=C/c4ccncc4)ncnc32)c1	-2.35
COc1cc2ncn(-c3cc(OCc4ccccc4C(F)(F)F)c(C(C)=O)s3)c2cc1OC	0.98
CCN(CC)Cc1ccc(Nc2nccc(-c3cnn4ncccc34)n2)cc1	1.17
COc1ccc2ncn(-c3cc(O[C@H](C)c4ccccc4Cl)c(C(N)=O)s3)c2c1	1.46
C[C@@H](Oc1cc(-n2cnc3ccc(OCC4CCN(C)CC4)cc32)sc1C(N)=O)c1ccccc1Cl	2.66
NC(=O)c1cc(-c2ccc(F)cc2)cc(-c2ccncc2)c1N	2.99
NC(=O)c1ccc(Oc2nccc(-c3c(-c4ccc(F)cc4)ncn3C3CCNCC3)n2)cc1	2.75
C#Cc1cccc(Nc2ncnc3ccc(OCCCCNCCS(C)(=O)=O)cc23)c1	4.25
